experiment: Crystallinity (X-rays / powder X-ray diffraction); assay type: physicochemical; details: salts of Example 2C
readout-type: Crystallinity (Powder X-Ray Diffraction)

C[C@@H]1CNCCN1c1nccnc1OCCOc1cccnc1OCCN(C)C.O=C(O)CC(O)(CC(=O)O)C(=O)O [citrate] = practically amorphous
C[C@@H]1CNCCN1c1nccnc1OCCOc1cccnc1OCCN(C)C.O=C(O)CN(CCN(CC(=O)O)CC(=O)O)CC(=O)O [edeteate] = practically amorphous

* * *

experiment: Solubility; conditions: water
readout-type: solubility

C[C@@H]1CNCCN1c1nccnc1OCCOc1cccnc1OCCN(C)C.O=P(O)(O)O = ≥ 590 mg/mL

* * *

assay: Solubility; settings: 0.9% w/w NaCl, saline or isotonic
readout-type: solubility

CCOc1ncccc1OCCOc1nccnc1N1CCNC[C@H]1C.O=C(O)/C=C/C(=O)O [fumarate, reference compound] = > 93 mg/mL

* * *

Assay: Hygroscopicity (DVS, storage at RT/different RHs and at 40° C./75% RH)
Format: physicochemical
Settings: salts of Example 2C
Protocol: Hygroscopicity (DVS, Storage at RT/Different RHs and at 40° C./75% RH)
readout-type: Hygroscopicity

C[C@@H]1CNCCN1c1nccnc1OCCOc1cccnc1OCCN(C)C.O=C(O)C(=O)O [oxalate] = low
